- System: MDA-MB-435
- assay_text: NCI tumour cell line growth inhibition, 48 h
Active and inactive are the calls of the source. Rule as the data show it: active = GI50 up to about 1.1 µM and inactive = higher.
property_label: GI50

> print(dat)
                                    compound  property.label          assay.result
 1  NC(=O)NCCSC1CCCCC1O (stereo unspecified)            GI50   > 100 µM (inactive)
 2  ClCCN(CCCl)c1ccc(CNCCCNCc2ccc(N(CCCl)CCCl)cc2)cc1            GI50    2.69 µM (inactive)
 3  COc1cc([C@@H]2c3cc4c(cc3[C@@H](OC3OC5COC(C)OC5C(O)C3O)[C@H]3COC(=O)[C@H]23)OCO4)cc(OC)c1O (stereo partly specified)            GI50    28.2 µM (inactive)
 4    COC1(OC)CC(CO)(CNc2nc(N)nc(Cl)c2C=O)C1            GI50    25.8 µM (inactive)
 5  Nc1ccc(S(=O)(=O)Nc2nc3ccccc3nc2N2CCCCC2)cc1            GI50   > 100 µM (inactive)
 6             COC(=O)/C=C/C1(O)C=CC(=O)C=C1            GI50    5.13 µM (inactive)
 7           C=C(CO[Si](C)(C)C(C)(C)C)C(C)=O            GI50    17.6 µM (inactive)
 8  CCOc1cccc(/C=N\c2ccccc2SSc2ccccc2/N=C\c2cccc(OCC)c2O)c1O            GI50    11.5 µM (inactive)
 9  CC(=O)OCC1OC(SC2=N/C(=C\c3ccc(Br)s3)C(=O)N2CN2CCOCC2)C(OC(C)=O)C(OC(C)=O)C1OC(C)=O (stereo unspecified)            GI50    23.8 µM (inactive)
10  COc1cc2c3c(c1OC)-c1cc4c(cc1CC3(C#N)N(C(=O)c1ccccc1)CC2)OCO4 (stereo unspecified)            GI50  > 88.5 µM (inactive)
11                  O=c1ssc2c1Nc1c(ssc1=O)S2            GI50    18.5 µM (inactive)
12            S=C(NCCc1ccccn1)N/N=C/c1ccccn1            GI50    4.09 µM (inactive)
13  C[C@@H]1CC[C@@H]2[C@@H](C1)O[C@@H]([C@@H](C)OCc1ccccc1)SC2(C)C            GI50    16.9 µM (inactive)
14  Cc1cc2c(cc1-c1cc3c(cc1C)C(C(C)C)=C(O)C(=O)/C3=C\Nc1ccccn1)/C(=C/Nc1ccccn1)C(=O)C(O)=C2C(C)C            GI50    43.5 µM (inactive)
15                  S=C1CSc2c(ccc3ccccc23)N1            GI50   > 100 µM (inactive)
16  CN(C)c1ccc(/C=C2\N=C(c3ccc([N+](=O)[O-])cc3)OC2=O)cc1            GI50    81.8 µM (inactive)

* * *

- System: MOLT-4
- assay_text: NCI tumour cell line growth inhibition, 48 h
Activity calls are given as the source filed them. Cut-off read from the data, not from the text of the source: active = GI50 up to about 1.1 µM and inactive = higher.
property_label: GI50

> print(dat)
                                   compound  property.label         assay.result
1  CN(C(=O)C12C3C4C1C1C2C3C41C(=O)O)C(C)(C)C (stereo not drawn)            GI50  > 100 µM (inactive)
2  O=C1C(c2ccccc2)=C(c2ccccc2)C(c2ccc(CCCCCCc3ccc(C4=C(c5ccccc5)C(=O)C(c5ccccc5)=C4c4ccccc4)cc3)cc2)=C1c1ccccc1            GI50  > 100 µM (inactive)
3  Cc1cc2c(cc1-c1cc3c(cc1C)C(C(C)C)=C(O)C(=O)/C3=C\Nc1ccccn1)/C(=C/Nc1ccccn1)C(=O)C(O)=C2C(C)C            GI50   25.7 µM (inactive)
4  CC(=O)N1c2ccccc2C(C)(C)OC1C(Cl)(Cl)Cl (stereo not drawn)            GI50   14.4 µM (inactive)
5  COc1cc(/C=C/C(=N\NC(=S)NN)c2sc(NNC(C)=O)nc2C)ccc1O            GI50  > 100 µM (inactive)
6  Cc1c(OCc2cccc3ccccc23)ccc2c(O)cc(=S)oc12            GI50     32 µM (inactive)
7          COc1ccc(/C=C(\C#N)c2ccccn2)cc1OC            GI50   57.4 µM (inactive)
8    CC(=O)Nc1ccc2nc(-c3cccc(F)c3)cc(O)c2c1            GI50   2.56 µM (inactive)

* * *

- Test system: Malme-3M
- assay_text: NCI tumour cell line growth inhibition, 48 h
The source made the active and inactive calls. Rule as the data show it: active = GI50 up to about 1.1 µM and inactive = higher.
Possible outcomes: yes (1) for active, no (0) for inactive

> print(dat)
                                   compound  assigned.category
1  CC1Cc2c(Br)nc(N)nc2NC1=O (stereo not drawn)             no (0)
2  COc1cc(/C=C2/SC(c3ccccc3)N(c3cccc([N+](=O)[O-])c3)C2=O)cc(OC)c1OC (stereo not drawn)             no (0)
3        N#Cc1nc(CCN2C(=O)c3ccccc3C2=O)oc1N             no (0)
4                  O=c1cc(CBr)c2ccc(O)cc2o1             no (0)
5  CCCCC1Cc2cc(OC)ccc2-c2n1c1cc(OC)ccc1[n+]2C.CCCCC1Cc2cc(OC)ccc2-c2n1c1ccc(OC)cc1[n+]2C (stereo not drawn)            yes (1)
6  CC(=O)OCCOCNC(=S)N/N=C/c1ccc([N+](=O)[O-])o1             no (0)
7  CC(C)OC(=S)Nc1ccc(Cl)c(/C=N/OC(C)(C)C)c1             no (0)
8  Cc1nc(-n2nc(-c3ccccc3)cc2-c2ccccc2)sc1C(=O)CC(=O)C(=O)Nc1ccc(Cl)c(Cl)c1             no (0)

* * *

- Test system: CCRF-CEM
- assay_text: NCI tumour cell line growth inhibition, 48 h
Activity calls are given as the source filed them. No stated cut-off is given here; in the data, active = GI50 up to about 1.1 µM and inactive = higher.
Possible outcomes: active, inactive

> print(dat)
                                   compound  assigned.category
1  Nc1nccc(NCC2(CO)CC(CCc3ccccc3)C2)n1 (stereo not given)           inactive
2  Cc1cccc2c1CC1(Cc3ccccc3C1=O)C2=O (stereo not given)           inactive
3          Cc1nc(N)nc(N)c1-c1ccc(Cl)c(Cl)c1             active
4  Cc1ccc([N+](=O)[O-])c2c(NCCCN(C)C)ccnc12           inactive
5  Cc1csc2c(P(=O)(OC(C)C)OC(C)C)c(-c3ccccc3)cn12           inactive

* * *

- Tested on: DLD-1
- assay_text: NCI tumour cell line growth inhibition, 48 h
The source made the active and inactive calls. Cut-off read from the data, not from the text of the source: active = GI50 up to about 1.1 µM and inactive = higher.
Possible outcomes: active, inactive

> print(dat)
                            compound.string  measurement.target  assigned.category
1       COc1ccc(OC)c(CCc2cc(OC)c(OC)cc2C)c1               DLD-1           inactive
2  NC(=O)NNC(=O)CCn1[nH]c(=O)c(Cl)c(Cl)c1=O               DLD-1           inactive
3          Cc1nc(N)nc(N)c1-c1ccc(Cl)c(Cl)c1               DLD-1             active
4                                 OCC#CCNCl               DLD-1           inactive

* * *

- Test system: SW-620
- assay_text: NCI tumour cell line growth inhibition, 48 h
The source made the active and inactive calls. No stated cut-off is given here; in the data, active = GI50 up to about 1.1 µM and inactive = higher.
Catalogue of GI50 values
property_label: GI50

> print(dat)
                                    compound  measurement.target  property.label         assay.result
 1  Cc1nn(C(=O)c2ccc(Cl)cc2)c2c1C(c1ccc(O)cc1)SC(=N)N2 (stereo not given)              SW-620            GI50   > 10 µM (inactive)
 2  c1ccc2c[n+](CCCCCCCCCC[n+]3ccc4ccccc4c3)ccc2c1              SW-620            GI50   > 10 µM (inactive)
 3                  O=c1cc(CBr)c2ccc(O)cc2o1              SW-620            GI50  > 100 µM (inactive)
 4  CC[C@@]1(CCC(=O)NCCc2c[nH]c3ccccc23)CCC(=O)N2CCc3c([nH]c4ccccc34)[C@H]21              SW-620            GI50   25.8 µM (inactive)
 5                    O=C(O)CSCC(=O)c1ccccc1              SW-620            GI50  > 100 µM (inactive)
 6  COc1ccccc1C1C(C(=O)Nc2ccccc2)=C(C)NC(C)=C1C(=O)Nc1ccccc1              SW-620            GI50   93.8 µM (inactive)
 7  Cc1c(C)c2c(c(N)c1C#N)C(=O)N(CCc1ccccc1)C2=O              SW-620            GI50  > 100 µM (inactive)
 8  Clc1ccc(CCN[C@H]2CCCC[C@H]2N2CCCC2)cc1Cl              SW-620            GI50     34 µM (inactive)
 9       COc1ccc(/C=N/NS(=O)(=O)c2ccccc2)cc1              SW-620            GI50  > 100 µM (inactive)
10  CN(C)c1ccc(/C=C(\NC(=O)c2ccccc2)C2NC(Cc3c[nH]c4ccccc34)C(=O)O2)cc1 (stereo not given)              SW-620            GI50   9.42 µM (inactive)
